B1: glmS ribozyme (parent)
chain: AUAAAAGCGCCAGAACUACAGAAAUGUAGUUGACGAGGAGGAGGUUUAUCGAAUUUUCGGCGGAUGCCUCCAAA

Variants of: B1
Assay: self-cleavage kobs at 40 uM GlcN6P; higher = faster cleavage; RNA array
Details: with glucosamine-6-phosphate
Fewer inactive variants are shown than the library holds.
readoutKind: self-cleavage kobs at 40 uM GlcN6P

Consider the reported self-cleavage kobs at 40 uM GlcN6P for these variants:
A15C G40A :: 2.42e-05 s⁻¹
A52U C58U :: < 1e-05 s⁻¹
C11G A48G :: < 1e-05 s⁻¹
G7U G59U :: < 1e-05 s⁻¹
G63U :: < 1e-05 s⁻¹

### Prompt Consider the variant A6C G29U G32A U57A and give its measured self-cleavage kobs at 40 uM GlcN6P.
### Response < 1e-05 s⁻¹

### Prompt What do we get for A36G A64G ?
### Response < 1e-05 s⁻¹

### Prompt Field entry: G35U G41U
### Response < 1e-05 s⁻¹

### Prompt For A15U U30C G51C then?
### Response < 1e-05 s⁻¹

### Prompt What do we get for C8A G35C C67A ?
### Response < 1e-05 s⁻¹

### Prompt Repeat with A36G G51A A52G
### Response < 1e-05 s⁻¹

### Prompt Note, next up: A6U G32C
### Response < 1e-05 s⁻¹

### Prompt For G38U C70G then?
### Response 2.71e-05 s⁻¹

### Prompt U49G C58A , same question.
### Response < 1e-05 s⁻¹

### Prompt Okay, and G9A G40C ?
### Response < 1e-05 s⁻¹

### Prompt Entry `C11U` please
### Response 8.01e-05 s⁻¹

### Prompt Here is the next variant: G7A A12U A33C C58A A64G
### Response < 1e-05 s⁻¹

### Prompt Another variant to look at: A42U C61U
### Response < 1e-05 s⁻¹

### Prompt Another variant: A12C C67A
### Response 0.000204 s⁻¹
